Reference source: patent US20260116991A1

molecular target: T1, GPC3 endogenously expressed on HepG2 cells (UniProt P51654 25-554); test: FACS on HepG2 cells;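 further: flow cytometric binding of chimeric antibodies to cells, read as mean fluorescence intensity, EC50 obtained by curve fitting of the MFI data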
T1 construct: whole, on cells
The entries below come with measured EC50 values attached.
Use nM as the unit, but write only the number.

Worked set:
| binder | EC50 / nM |
| --- | --- |
| F4.13.7 human-murine chimeric antibody (antibody, human IgG1, kappa, V domains shown) VH: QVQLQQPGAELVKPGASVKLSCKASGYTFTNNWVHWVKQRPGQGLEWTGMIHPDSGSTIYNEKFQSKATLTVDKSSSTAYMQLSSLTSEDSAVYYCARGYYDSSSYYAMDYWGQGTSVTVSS VL: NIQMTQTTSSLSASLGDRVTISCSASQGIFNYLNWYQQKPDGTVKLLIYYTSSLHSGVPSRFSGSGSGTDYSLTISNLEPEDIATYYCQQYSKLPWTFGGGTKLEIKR | 0.58 |
| F1.9.19 human-murine chimeric antibody (antibody, human IgG1, kappa, V domains shown) VH: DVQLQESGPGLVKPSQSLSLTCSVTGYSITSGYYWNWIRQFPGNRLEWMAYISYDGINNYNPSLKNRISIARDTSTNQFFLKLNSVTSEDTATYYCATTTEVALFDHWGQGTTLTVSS VL: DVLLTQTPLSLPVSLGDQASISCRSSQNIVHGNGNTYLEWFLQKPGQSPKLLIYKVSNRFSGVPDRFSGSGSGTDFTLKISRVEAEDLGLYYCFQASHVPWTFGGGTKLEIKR | 1.12 |

With those in mind, consider the next binder.
Record summary for F2.92.1 human-murine chimeric antibody (antibody, human IgG1, kappa, V domains shown) VH: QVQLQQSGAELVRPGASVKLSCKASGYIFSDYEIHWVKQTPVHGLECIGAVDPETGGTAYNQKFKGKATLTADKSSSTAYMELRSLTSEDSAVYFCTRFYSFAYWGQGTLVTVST VL: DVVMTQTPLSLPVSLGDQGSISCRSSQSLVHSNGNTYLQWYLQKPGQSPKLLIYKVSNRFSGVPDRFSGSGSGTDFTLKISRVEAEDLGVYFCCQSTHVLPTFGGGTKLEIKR : reported EC50 = 0.92
